Biological target: Streptavidin (Streptomyces avidinii) (UniProt P22629)
Sequence (P22629 whole entry, looked up): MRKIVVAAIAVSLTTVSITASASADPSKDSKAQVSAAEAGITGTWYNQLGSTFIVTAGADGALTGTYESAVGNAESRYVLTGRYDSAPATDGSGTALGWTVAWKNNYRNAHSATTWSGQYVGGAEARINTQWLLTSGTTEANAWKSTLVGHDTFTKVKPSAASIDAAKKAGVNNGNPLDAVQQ
Experiment: streptavidin binders on small-molecule microarray, primary screen, artefact control for SMM compound annotation, biophysical, 635/667 nm fluorescence (AID 1147);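 also: signal reflects streptavidin binding to arrayed compounds as a control protein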
Conditions: streptavidin binding, higher = more signal
Readout kind: composite z-score

>>> print(df.to_string())
                                    compound                       experimental_system  measured
 0  COC(=O)[C@@]1(Cc2ccc(OC)cc2)[C@H]2c3cc(C(=O)N4CCCC4)n(CCc4ccc(OC)c(Br)c4)c3C[C@H]2CN1C(=O)c1ccccc1  Streptavidin (Streptomyces avidinii) (UniProt P22629)    0.0687
 1  COC(=O)[C@@H]1N=C(c2ccc(OCCCO)cc2)O[C@@H]1c1ccccc1CN=[N+]=[N-]  Streptavidin (Streptomyces avidinii) (UniProt P22629)     0.551
 2  CCCC[C@H]1OB(O)C[C@H]2C1=C(COC)C[C@H]1C(=O)C=CC(=O)[C@H]12  Streptavidin (Streptomyces avidinii) (UniProt P22629)    -0.045
 3  COC(=O)[C@]1(CO)N=C(c2ccc(OCCCO)cc2)O[C@@H]1c1ccccc1CN=[N+]=[N-]  Streptavidin (Streptomyces avidinii) (UniProt P22629)    -0.447
 4  N#Cc1ccc(C(O)C2C=CC3C(=O)N(c4ccccc4)C(=O)C3N2Nc2ccc([N+](=O)[O-])cc2)cc1 (stereo not given)  Streptavidin (Streptomyces avidinii) (UniProt P22629)      1.86
 5  CC(=O)n1cc(C(O)C2C=CC3C(=O)N(c4ccccc4)C(=O)C3N2Nc2ccccc2F)c2ccccc21 (stereo not given)  Streptavidin (Streptomyces avidinii) (UniProt P22629)    0.0289
 6  COCCn1c(C(=O)N2CCCC2)cc2c1C[C@H]1CN(C(=O)c3ccccc3)[C@@](Cc3ccccc3)(C(=O)OC)[C@@H]21  Streptavidin (Streptomyces avidinii) (UniProt P22629)     0.393
 7  COCCOC(=O)N1C(=O)[C@@]2(c3ccccc31)[C@H](C(N)=O)[C@H]1C(=O)O[C@H](c3ccccc3)[C@H](c3ccccc3)N1[C@@H]2c1ccc(OCCO)cc1  Streptavidin (Streptomyces avidinii) (UniProt P22629)     0.554
 8  COCCCNC(=O)[C@@H]1c2ccccc2C(=O)N(Cc2cc(C(F)(F)F)cc(C(F)(F)F)c2)[C@H]1c1ccc(CO)cc1  Streptavidin (Streptomyces avidinii) (UniProt P22629)    -0.587
 9  C=CCN1C(=O)[C@]2(O[C@H](CCO)[C@@H]([Si](C)(C)c3ccc(OC)cc3)[C@@H]2C)c2ccccc21  Streptavidin (Streptomyces avidinii) (UniProt P22629)    -0.652
10  CC(C)N1CC=CC23O[C@@H]4C=CCCOC(=O)C4[C@H]2C(=O)N(CCCCCO)[C@@H]3C1=O (stereo not given in full)  Streptavidin (Streptomyces avidinii) (UniProt P22629)      1.88
11  CC(C)C[C@@H]1NC(=O)[C@@H]2C[C@H](C(=O)O)[C@H](c3ccc(O)cc3)N2C1=O  Streptavidin (Streptomyces avidinii) (UniProt P22629)     0.741
12  COc1ccc(CCNC(=O)[C@@H]2c3ccccc3C(=O)N(CC34CC5CC(CC(C5)C3)C4)[C@H]2c2ccc(CO)cc2)cc1  Streptavidin (Streptomyces avidinii) (UniProt P22629)       0.4
13  COc1ccc(NN2C(C(O)c3ccc(OC)cc3)C=CC3C(=O)N(C4CCCCC4)C(=O)C32)cc1 (stereo not given)  Streptavidin (Streptomyces avidinii) (UniProt P22629)     0.964
14  COc1ccc([Si](C)(C)[C@H]2[C@H](CCn3cc([C@H](O)c4ccccc4)nn3)O[C@@]3(C(=O)N(c4ccccc4)c4ccccc43)[C@@H]2C)cc1  Streptavidin (Streptomyces avidinii) (UniProt P22629)    -0.265
